Target: P. falciparum apicoplast DNA polymerase (Pf-apPOL) (Plasmodium falciparum, UniProt Q8ILY1)
Sequence (Q8ILY1 entry or part of it): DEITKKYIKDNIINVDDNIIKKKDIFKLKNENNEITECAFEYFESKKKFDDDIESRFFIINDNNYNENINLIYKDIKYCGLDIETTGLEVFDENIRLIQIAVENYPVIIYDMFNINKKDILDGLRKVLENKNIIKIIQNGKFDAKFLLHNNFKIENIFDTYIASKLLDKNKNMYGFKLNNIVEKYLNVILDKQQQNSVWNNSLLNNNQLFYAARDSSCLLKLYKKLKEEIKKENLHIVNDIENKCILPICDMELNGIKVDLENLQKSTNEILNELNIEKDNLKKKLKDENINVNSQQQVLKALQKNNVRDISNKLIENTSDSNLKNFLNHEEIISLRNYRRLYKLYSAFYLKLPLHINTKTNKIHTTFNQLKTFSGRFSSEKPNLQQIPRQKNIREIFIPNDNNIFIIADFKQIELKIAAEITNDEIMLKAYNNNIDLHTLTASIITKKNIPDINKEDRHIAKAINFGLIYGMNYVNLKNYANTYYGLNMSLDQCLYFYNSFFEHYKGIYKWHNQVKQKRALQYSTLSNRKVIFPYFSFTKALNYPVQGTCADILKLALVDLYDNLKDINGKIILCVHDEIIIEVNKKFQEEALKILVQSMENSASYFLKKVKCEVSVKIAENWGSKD
Assay: Fluorescence-based high-throughput DNA polymerase assay (molecular beacon), primary screen and dose-response;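 as to % inhibition apPOL 180': test concentration in µM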
Format: biochemical
Details: DRC-2; 180'; concentration 20
// reported % inhibition apPOL 180' for each item listed
Dear colleague, please return just the value in %, with no unit written.

These solved cases illustrate the format of a correct answer.
COc1ccc(-c2n[nH]cc2Oc2ccc(Cl)cc2)c(O)c1: 43
O=C(O)CCS(=O)(=O)c1ccc(-c2ccc(S(=O)(=O)CCC(=O)O)cc2)cc1: 32
O=C(c1c[nH]c2ncccc12)N1CCCC1 [Molecule 63, O=C(c1c[nH]c2c1cccn2)N1CCCC1]: 41
Cc1cc(C)c2c(O)nc(SCC(=O)c3ccc(O)c(O)c3)nc2n1: 63
COc1ccc(C)cc1NC(=O)Cn1ccc2c(=O)[nH]ccc21 [Molecule 15, COc1ccc(cc1NC(=O)Cn1ccc2c1cc[nH]c2=O)C]: 66
CC(C)(C)OC(=O)COc1ccc2cc(-c3ccccc3)c(=O)oc2c1: 2.69
CN(C)S(=O)(=O)Oc1ccc(-c2noc(-c3ccc(Oc4cc(Cl)cc(Cl)c4)o3)n2)cc1: 47
Cc1ccc2c(C(=O)NCCc3cccnc3)cc(NC(=O)C(C)C)cc2n1: 28
Cn1nc(C(=O)N2CCc3c(nc4cc(-c5ccccc5)[nH]n4c3=O)C2)c2ccccc21: 45
CC(C)(C)c1cc(C(=O)C(C#N)=NNc2cccc(Cl)c2)no1: 57

Could you share which % inhibition apPOL 180' value was measured for `COc1ccc(/C=C/c2cc(C(=O)O)c3ccccc3n2)cc1` ? 38

And `O=C(Nc1c2c(nn1-c1ccc(Oc3ccccc3)cc1)CSC2)c1ccco1` ? 62

Can you check `O=C(c1ccccc1)N1CCc2c(nc3cc(-c4ccccc4)[nH]n3c2=O)C1` next? 50

Queued: O=C(Cn1ccc2c(=O)[nH]ccc21)Nc1ccccc1Cl [Molecule 19, O=C(Cn1ccc2c1cc[nH]c2=O)Nc1ccccc1Cl] 77

====

Molecular target: UniProt Q8ILY1
Test: Fluorescence-based high-throughput DNA polymerase assay (molecular beacon), primary screen and dose-response
Assay type: biochemical
Details: DRC-2, 40', concentration 80
QUANTITY_MEASURED: % inhibition Apol 40' (%)
Response body: numeric value in %, unit text excluded.

Field: example entries. Status: answers known.
CO/N=C(\C(=O)N[C@@H]1C(=O)N2C(C(=O)[O-])=C(CSc3nc(=O)c([O-])nn3C)CSC12)c1csc(N)n1.[Na+].[Na+] (some centres unmarked) [Molecule 83]: 59
O=c1cc(-c2ccccc2)oc2c(O)c(O)ccc12 [Molecule 84, Oc1ccc2c(c1O)oc(cc2=O)c1ccccc1]: 36
CN(C)C=C1SCc2ccccc2C1=O [Molecule 77, CN(C=C1SCc2c(C1=O)cccc2)C]: 57
O=C(O)c1c(F)c(F)c(-c2c(F)c(F)c(C(=O)O)c(F)c2F)c(F)c1F [KU0008974]: 47
Oc1ccc(N=Nc2ccccc2)c(O)c1 [Molecule 80, Oc1ccc(c(c1)O)N=Nc1ccccc1]: 54
CCOc1ccccc1-c1nc(-c2ccc(=O)[nH]c2)no1 [Molecule 76, CCOc1ccccc1c1onc(n1)c1ccc(=O)[nH]c1]: 55
Cc1nn(CC(=O)NCCSCc2ccco2)c(C)c1Br [KU0267182]: 64
CN(C)C=CC(=O)c1ccccn1 [Molecule 64, CN(C=CC(=O)c1ccccn1)C]: 64
CSC(C)C(=O)C=CN(C)C (centres unmarked) [Molecule 71, CSC(C(=O)C=CN(C)C)C]: 62
O=C(NNC(=O)C(F)(F)Sc1ccccc1)c1ccsc1 [Molecule 68, O=C(C(Sc1ccccc1)(F)F)NNC(=O)c1cscc1]: 64

Look up % inhibition Apol 40': O=[N+]([O-])c1cc2c(cc1CN1CCN(c3cccc(Cl)c3)CC1)OCO2 [KU0005610] 61

Now try O=C(Nc1ncc([N+](=O)[O-])s1)c1ccc2c(c1)C(=O)N(N1C(=O)c3ccccc3C1=O)C2=O [KU0026378] . 73

Please do the same for O=C(Nc1nnc(-c2cccs2)o1)c1ccc([N+](=O)[O-])o1 [Molecule 74] as well. 78

Then CCSc1nnc(NC(=O)Cc2csc(NC(=O)c3cnccn3)n2)s1 [Molecule 79] ? 76

Same for O=C(c1c[nH]c2ncccc12)N1CCCCCC1 [Molecule 51, O=C(c1c[nH]c2c1cccn2)N1CCCCCC1] 61

Do the same for O=C(Nc1nnc(-c2ccno2)o1)c1ccc2ncsc2c1 [Molecule 62, O=C(c1ccc2c(c1)scn2)Nc1nnc(o1)c1ccno1] please 56

# repeat for COc1ccc2c(c1)CCc1c-2nc2ccc(Br)cc2c1C(=O)O [KU0059417] 68
